The origin of these recorded values is patent US20260241013A1.

# ASSAYED_TARGET: CRBN (Homo sapiens)
# Construct: host or cells: HEK293 (NanoLuc CRBN HEK293 cells)
# Sequence (Q96SW2 whole entry): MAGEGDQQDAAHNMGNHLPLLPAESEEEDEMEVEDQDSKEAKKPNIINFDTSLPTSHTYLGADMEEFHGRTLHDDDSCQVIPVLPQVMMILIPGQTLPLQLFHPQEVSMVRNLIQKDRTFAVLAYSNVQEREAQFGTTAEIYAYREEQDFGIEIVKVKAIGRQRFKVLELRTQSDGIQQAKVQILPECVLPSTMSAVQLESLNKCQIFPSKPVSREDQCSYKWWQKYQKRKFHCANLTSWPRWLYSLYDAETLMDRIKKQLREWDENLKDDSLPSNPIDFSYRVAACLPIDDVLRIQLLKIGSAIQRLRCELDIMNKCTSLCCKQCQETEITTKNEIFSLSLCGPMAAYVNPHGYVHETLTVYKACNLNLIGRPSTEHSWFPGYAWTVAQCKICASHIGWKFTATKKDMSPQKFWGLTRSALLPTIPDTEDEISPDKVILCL
# EXPERIMENTAL_PROTOCOL: NanoBRET In-cell CRBN Target Engagement Assay (live and lytic mode), NanoLuc CRBN HEK293 cells
# Format: cell-based
# SETTINGS: lytic mode, digitonin-lysed cells, no incubation; read-out: pIC50 (lytic) (converted)
QUANTITY: IC50 (nM)

Cc1nn(C)c(C)c1-c1c(Cl)ccc2c(CCCOc3cccc4cc(F)ccc34)c(C(=O)OCCN3CCN(C)CC3)n(CCN3CCN(C(=O)COc4cccc5c4CN(C4CCC(=O)NC4=O)C5=O)CC3)c12 (stereo not drawn) ... 251
Cc1nn(C)c(C)c1-c1c(Cl)ccc2c(CCCOc3cccc4cc(F)ccc34)c(C(=O)OCOC(=O)C(C)(C)C)n(CCN3CCN(C(=O)COc4cccc5c4n(C)c(=O)n5C4CCC(=O)NC4=O)CC3)c12 (stereo not drawn) ... 398
CCOCCOCCOC(=O)OC(C)OC(=O)c1c(CCCOc2cccc3cc(F)ccc23)c2ccc(Cl)c(-c3c(C)nn(C)c3C)c2n1CCN1CCN(C(=O)COc2cccc3c2CN(C2CCC(=O)NC2=O)C3=O)CC1 (stereo not drawn) ... 794
Cc1nn(C)c(C)c1-c1c(Cl)ccc2c(CCCOc3cccc4cc(F)ccc34)c(C(=O)OCOC(=O)C(C)(C)C)n(CCN3CCN(C(=O)COc4cccc5c4CN(C4CCC(=O)NC4=O)C5=O)CC3)c12 (stereo not drawn) ... 6310
CC(=O)OCOC(=O)c1c(CCCOc2cccc3cc(F)ccc23)c2ccc(Cl)c(-c3c(C)nn(C)c3C)c2n1CCN1CCN(C(=O)COc2cccc3c2CN(C2CCC(=O)NC2=O)C3=O)CC1 (stereo not drawn) ... 501

[I] Cc1nn(C)c(C)c1-c1c(Cl)ccc2c(CCCOc3cccc4cc(F)ccc34)c(C(=O)OCOC(=O)C(C)(C)C)n(CCN3CCN(C(=O)COc4ccc5c(c4)n(C)c(=O)n5C4CCC(=O)NC4=O)CC3)c12 (stereo not drawn)
[II] Cc1nn(C)c(C)c1-c1c(Cl)ccc2c(CCCOc3cccc4cc(F)ccc34)c(C(=O)OCOC(=O)C(C)(C)C)n(CCN3CCN(C(=O)Cn4c(C)nc5c(C(=O)NC6CCC(=O)NC6=O)cccc54)CC3)c12 (stereo not drawn)
[in] I'd appreciate it if you could identify which of I and II has the greater IC50. Response format: the label of the selected entry.
[out] II
(II: 7940 nM, I: 316 nM)

[1] Cc1nn(C)c(C)c1-c1c(Cl)ccc2c(CCCOc3cccc4cc(F)ccc34)c(C(=O)OCCN3CCOCC3)n(CCN3CCN(C(=O)COc4cccc5c4CN(C4CCC(=O)NC4=O)C5=O)CC3)c12 (stereo not drawn)
[2] Cc1nn(C)c(C)c1-c1c(Cl)ccc2c(CCCOc3cccc4cc(F)ccc34)c(C(=O)OCOC(=O)CCO)n(CCN3CCN(C(=O)COc4cccc5c4CN(C4CCC(=O)NC4=O)C5=O)CC3)c12 (stereo not drawn)
[in] Which value of IC50 is smaller, the one for 1 or the one for 2 ? In your reply, give the label of the chosen option.
[out] 2
